test system: U251 CNS; experiment: NCI-60 one-dose screen, 48 h; conditions: 10 µM unless noted
The panel holds about 83,000 compounds, 20% with a hit somewhere; the sample as a whole holds those more often. Calls of active or inactive are those of the source. How the source made its calls: active means growth percent below 10; inactive means the rest.
The reply should name one outcome from 1 for active, 0 for inactive

Consider the following illustrative entries.
1) CCN(CC)CCNC(=O)n1cc(-c2ccncc2)c(-c2ccc(Cl)c(OC)c2)n1 :: 0
2) COc1ccc(/C=C(\C#N)c2cc(OC)c(OC)c(OC)c2)cc1 :: 0
3) C=C1C(=O)O[C@H]2[C@H]1CC/C(COC(=O)NCc1cn(C)c3ccccc13)=C\CC[C@@]1(C)O[C@@H]21 :: 1
4) CCOC(=O)C1OC2(CCCC2)OC1C(=O)OCC (stereo unspecified) :: 0
5) CNC1=C([N+](=O)[O-])C(c2ccccc2O)C(C#N)=C(c2cccs2)O1 (stereo unspecified) :: 0

I would be grateful if you could indicate the recorded call for COc1cc(Cl)cc(-c2nn(C(=O)NCCN3CCOCC3)cc2-c2ccncc2)c1 .
0

Tell me the recorded outcome of this test for CCN(CC)CCNC(=O)C(F)(F)C(F)(F)C(F)(F)F .
0

* * *

tested on: DU-145 prostate; assay: NCI-60 one-dose screen, 48 h; conditions: 10 µM unless noted
Compounds without any hit were thinned out: in the full panel of roughly 83,000, 20% have a hit. Active and inactive are the calls of the source. The calls were made as follows: active = growth percent below 10; inactive = the rest.
Thanks in advance; please answer with one of these: active, inactive

1. COc1ccc2c(c1)OC1=C(C(=O)OC1)C2c1cc(OC)c2c(c1)OCCO2 (stereo not given) :: active
2. COc1cc(C2CC(c3ccc(C)cc3)=NN2C=O)ccc1Oc1ccnc2cc(Cl)ccc12 (stereo not given) :: inactive
3. COc1cc(C2CC(c3ccccc3)=NN2C=O)ccc1Oc1nc2c(c(=O)n(C)c(=O)n2C)n1C (stereo not given) :: inactive
4. Cc1ccsc1C(=O)CC(=O)C(F)(F)C(F)(F)C(F)(F)F :: inactive
5. O=C1OC(/C=C/c2ccccc2)=NC/1=C/c1ccccc1[N+](=O)[O-] :: inactive

For this compound, state the assay outcome: COc1cccc(-c2nc3sccn3c2-c2ccnc(NCCN3CCCNS3(=O)=O)n2)c1
inactive

For O=C(C(=O)N1CCCC1)c1cn(CCCn2cc(C(=O)C(=O)N3CCCC3)c3cc(Br)ccc32)c2ccc(Br)cc12 , which call appears in the assay record?
inactive

Assay outcome for O=C1SCN(Cc2ccccc2)CN1Cc1ccccc1 : what was it?
inactive

What did this assay record as the result for O=C(N/N=C/c1ccccc1O)c1ccncc1 ?
inactive

Hello, I am checking results. What call was entered for CCCCCCCCCCCCCCCCCC1=NCCN1CCO ?
inactive

* * *

test system: M14 melanoma; assay: NCI-60 one-dose screen, 48 h; settings: 10 µM unless noted
About 83,000 compounds went through this panel and 20% of them were active in at least one assay; those are over-represented in the sample as a whole. The source made the active and inactive calls. Rule for the calls: active = growth percent below 10; inactive = the rest.
Classes to choose from: active, inactive

Solved entries:
1. O=C1/C=C/[C@@H](O)[C@@H]2C[C@@H](O)C[C@H]2/C=C/CCC[C@H]([C@@H](O)CO)O1 :: inactive
2. CC1(C)CC(=O)c2cc3c(N)c(C(=O)Nc4ccc(Cl)cc4)sc3nc2C1 :: inactive
3. Cc1nn(-c2cccc(Cl)c2)c(C)c1N=Nc1ccc(Br)cc1 :: inactive
4. O=C1c2cccc3cccc(c23)C(=O)N1CCCCCCCCCCN1C(=O)c2cccc3cccc(c23)C1=O :: inactive
5. CC(=O)C1CCC2C3CC(C)=C4CC(O)CCC4(C)C3CCC12C (centres undefined) :: inactive

Tell me the recorded outcome of this test for NNC(=O)CSc1nc2scc(-c3ccccc3)c2c(=O)n1-c1ccccc1 .
inactive

Assay result, entry O=S(=O)(Nc1ccc2ccccc2c1)N1CCCCC1 — outcome?
inactive

How was C=C1C[C@@]2(C)C(CC[C@]3(C)C2CC=C2C4CC(C)(C)C[C@@H](OC(=O)/C(C)=C\C)[C@]4(C(=O)O)CC[C@]23C)C(C)(C)C1=O (some centres undefined) classified in this test?
active

Record lookup: outcome of this test for O=C(/C=C/c1ccccc1)c1c[nH]c2ccccc2c1=O ?
active

# outcome recorded in this test, key = COc1cnc2c(c1)C(=O)c1c-2n(CCCNC(C)C)c(=O)c2cc(Cl)ccc12
active
